These measurements were taken from paper PMC6413121.

- Experiment description: in vitro
- Assay type: cell-based
- Settings: African green monkey; read-out: Cytotoxicity to Vero cells
Reported metric: IC50

# IC50 of CC(=O)OC1C2OC2C(C)(O)C(=O)C(C)CC=CC2C(O)C(C)=C(C)C3C(Cc4ccccc4)NC(=O)C213 (centres unmarked) = > 4.76 µg/mL

The recorded IC50 for entry C=C1C(C)C2C(Cc3ccccc3)NC(=O)C23C(C=CCC(C)C(=O)C(C)(O)C2OC2C3OC(C)=O)C1O (centres unmarked) equals > 4.76 µg/mL

###

- Experiment description: in vitro
- Format: cell-based, human
- Settings: human; concentration causing 50% growth inhibition; read-out: Cytotoxic activity IC50, BT-549
Field: IC50. Provide a value for each of the compounds that follow.
Numbers only; they are read as µM.

Looking up CC(=O)OC1C2OC2C(C)C(=O)C(C)CC=CC2C(O)C(C)=C(C)C3C(Cc4ccccc4)NC(=O)C213 (stereo not drawn) , I found its IC50 recorded as 6.89

Form: compound = C=C1C(C)C2C(Cc3ccccc3)NC(=O)C23C(C=CCC(C)C(=O)C(C)(O)C2OC2C3OC(C)=O)C1O (stereo not drawn) ; IC50 = 7.84
